The binders listed here are annotated with their Kd.
molecular target: von Willebrand factor (VWF) (Homo sapiens, UniProt P04275 P04275:764-2813); assay: filter; Bmax 62%; 2 mM CaCl2, 37 C; conditions: tags: factor VIII free, Haematologic Technologies Inc; label: 5'-32P
Entry rule: numbers only, all in nM.

Binder	Recorded Metric	Recorded Value
ACGAACUGCCCUCAGCUACUUUCAUGUUGCUGACGCACAGACGU (ssRNA, rAfCrGrArAfCfUrGfCfCfCmUfCrArGfCfUrAfCfUfUfUfCrAfUrGfUfUrGfCfUrGmAfCrGfCrAfCrArGrAfCrGfU-idT) [T25 vrt21]	Kd	17

Could you share which Kd value was measured for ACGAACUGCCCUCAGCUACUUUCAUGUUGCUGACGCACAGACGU (ssRNA, rAfCrGrArAfCfUrGfCfCfCfUmCmAmGmCmUmAfCfUfUfUfCrAfUrGmUmUmGmCmUmGrAfCrGfCrAfCrArGrAfCrGfU-idT) [T25 vrt10] ?
5.7
